Test system: CCRIS mutagenicity, Ames/micronucleus/aberration tests
Assay: CCRIS mutagenicity studies
Conditions: Test System: Ames Salmonella typhimurium; Strain/Indicator: TA98; Metabolic Activation: None; Method: Preincubation
Calls of active or inactive are those of the source. How the calls were made is not given here.
Please answer using one outcome listed in 1 (active), 0 (inactive)

Previously resolved entries follow.
compound | target under test | class name
C[C@]12CCC(=O)C=C1CC[C@@H]1[C@@H]2CC[C@]2(C)C(=O)CC[C@@H]12 | CCRIS mutagenicity, Ames/micronucleus/aberration tests | 0
O=C(O)CCSCCC(=O)O | CCRIS mutagenicity, Ames/micronucleus/aberration tests | 0
O=C1C=CC(=O)c2ccccc21 | CCRIS mutagenicity, Ames/micronucleus/aberration tests | 0
C1=CCCCC1 | CCRIS mutagenicity, Ames/micronucleus/aberration tests | 0
C(=NC1CCCCC1)=NC1CCCCC1 | CCRIS mutagenicity, Ames/micronucleus/aberration tests | 0
OCCOc1ccccc1 | CCRIS mutagenicity, Ames/micronucleus/aberration tests | 0
Cc1cccc(O)c1 | CCRIS mutagenicity, Ames/micronucleus/aberration tests | 0
CN(C)c1ccc(C(=C2C=CC(=[N+](C)C)C=C2)c2ccccc2Cl)cc1 | CCRIS mutagenicity, Ames/micronucleus/aberration tests | 0

Hi, do you know how `CCCCNC(=O)c1cc(N)ccc1OC1CCCCC1` came out in this test?
0

Any idea what this test logged for OCC1CO1 (stereo not given) ?
1

The measurements presented in this section are drawn from PubChem BioAssay AID1259407.
